Dear all, this message contains IC50 results, target or system CDK5_p35NCK (Homo sapiens).

>  <Compound>
Cc1c(Br)c(Br)c2c3c1nc(N1CCNCC1)n3CCC2.Cl [SEL120-34A, reference compound]

>  <Qualifier Sign>
=

>  <IC50 / µM>
4.55

$$$$
>  <Compound>
Cc1n[nH]c2ncc(C(=O)N3CCC[C@H]3c3ccc(Cl)cc3)cc12 [MSC2530818]

>  <Qualifier Sign>
=

>  <IC50 / µM>
7.57

$$$$
>  <Compound>
Cn1ncc2cc(-c3cnc(N)c(Cl)c3N3CCC4(CCNC4=O)CC3)ccc21 [CCT251921]

>  <Qualifier Sign>
>

>  <IC50 / µM>
10

$$$$
>  <Compound>
CN1CCN(C(=O)c2ccc3cc(CCNc4ncnc5ccc(C#N)cc45)ccc3c2)CC1 [Senexin B, reference compound]

>  <Qualifier Sign>
>

>  <IC50 / µM>
10

$$$$
>  <Compound>
Cn1cc(-c2ccc(-c3cncc(Cl)c3N3CCC4(CCNC4=O)CC3)cc2)cn1 [CCT251545]

>  <Qualifier Sign>
>

>  <IC50 / µM>
10

$$$$
